biological target: human recombinant MAGL (Homo sapiens (Human)); experiment: In vitro inhibition of MAGL activity (inhibitor screening kit, 4-nitrophenylacetate); details: human recombinant MAGL
Sequence (Q99685 whole entry): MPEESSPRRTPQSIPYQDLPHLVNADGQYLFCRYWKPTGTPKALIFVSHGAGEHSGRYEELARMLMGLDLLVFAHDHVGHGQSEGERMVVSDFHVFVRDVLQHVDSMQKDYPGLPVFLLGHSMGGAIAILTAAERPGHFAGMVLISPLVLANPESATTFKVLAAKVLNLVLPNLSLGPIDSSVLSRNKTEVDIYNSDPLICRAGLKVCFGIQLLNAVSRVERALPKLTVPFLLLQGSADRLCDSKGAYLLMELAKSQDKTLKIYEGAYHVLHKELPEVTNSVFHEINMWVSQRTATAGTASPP
So I've got a bunch of compounds here, and I need their IC50 values.

Below: 10 compounds and their reported IC50.
compound=CSc1ccc(OC(=O)NC2CCCC2)cc1-c1cncc(-c2nnco2)c1 system="human recombinant MAGL (Homo sapiens (Human))" result="> 10 µM"
compound=O=C(NC1CCCC1)Oc1ccc(F)c(-c2cncc(-c3ncco3)c2)c1 system="human recombinant MAGL (Homo sapiens (Human))" result="> 10 µM"
compound="CC1CCC(NC(=O)Oc2cccc(-c3cc(-c4nnco4)ccn3)c2)CC1 (stereo not drawn)" system="human recombinant MAGL (Homo sapiens (Human))" result="> 1 µM"
compound=O=C(NCC1CCCCC1)Oc1cccc(-c2cncc(-c3ncn[nH]3)c2)c1 system="human recombinant MAGL (Homo sapiens (Human))" result="~10 µM"
compound=COc1ccc(OC(=O)NCc2ccccc2)cc1-c1cncc(-c2ccco2)c1 system="human recombinant MAGL (Homo sapiens (Human))" result="~10 µM"
compound=O=C(NC1CCCCCC1)Oc1ccc(F)c(-c2cncc(-c3nnco3)c2)c1 system="human recombinant MAGL (Homo sapiens (Human))" result="> 10 µM"
compound=Cc1cc(OC(=O)NC2CCCCCC2)cc(-c2cncc(-c3ncco3)c2)c1 system="human recombinant MAGL (Homo sapiens (Human))" result="~10 µM"
compound=O=C(NCCCc1ccccc1)Oc1cccc(-c2cncc(-c3nnco3)c2)c1 system="human recombinant MAGL (Homo sapiens (Human))" result="10 to 50 µM"
compound=O=C(NC1CCCCC1)Oc1cccc(-c2cncc(-c3ncn[nH]3)c2)c1 system="human recombinant MAGL (Homo sapiens (Human))" result="> 10 µM"
compound=N#Cc1cncc(-c2cccc(OC(=O)NC3CCCCCC3)c2)c1 system="human recombinant MAGL (Homo sapiens (Human))" result="> 10 µM"

Below are some compounds; for each one, tell me its IC50.
1. COc1ccc(OC(=O)NCc2ccccc2)cc1-c1cncc(-c2ccno2)c1
2. CCCCCCCCNC(=O)Oc1cc(-c2cncc(-c3ncco3)c2)ccc1C
3. O=C(NC1CCCCC1)Oc1cc(F)cc(-c2cncc(-c3nnco3)c2)c1
4. O=C(NC1CCCCCC1)Oc1cccc(-c2cncc(-c3nnco3)c2)c1
5. Cc1ccc(-c2cncc(-c3ncco3)c2)cc1OC(=O)NC1CCCCCC1
6. COc1ccc(OC(=O)NC2CCC(C)CC2)cc1-c1cncc(-c2ncco2)c1 (stereo not drawn)
7. O=C(NC1CCCC1)Oc1cc(O)cc(-c2cncc(-c3nnco3)c2)c1

Key:
> 10 µM
> 10 µM
> 10 µM
> 10 µM
> 1 µM
> 10 µM
> 50 µM

Exercise: For the compound "COc1ccc(OC(=O)NC2CCCCCC2)cc1-c1cncc(-c2nccs2)c1" , what IC50 is on record?
Key: > 10 µM
